Consider the following binders and their measured GIP EC50(pM) readings.
tested_target: T1, full-length human GIPR (GenBank NM_000164) with an N-terminal FLAG tag on HEK-293T cells (human), P48546
T1 chain: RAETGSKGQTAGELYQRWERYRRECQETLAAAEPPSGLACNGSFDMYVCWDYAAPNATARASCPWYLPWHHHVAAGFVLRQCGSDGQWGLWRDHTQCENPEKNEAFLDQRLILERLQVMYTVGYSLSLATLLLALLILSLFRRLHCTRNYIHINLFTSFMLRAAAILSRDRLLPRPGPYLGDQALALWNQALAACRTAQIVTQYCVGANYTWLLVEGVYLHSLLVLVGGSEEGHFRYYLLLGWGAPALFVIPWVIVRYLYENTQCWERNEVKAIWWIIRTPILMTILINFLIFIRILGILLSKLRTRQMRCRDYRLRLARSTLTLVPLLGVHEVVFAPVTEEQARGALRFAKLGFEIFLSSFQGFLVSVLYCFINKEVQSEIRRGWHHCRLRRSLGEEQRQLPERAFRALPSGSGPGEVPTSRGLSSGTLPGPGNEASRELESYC
assay_notes: cell-based or functional assay
Numbered stars: 1 amine (or outer) side, 2 acyl side, 3 side chain; on linkers, the order of the positions; unused ones are H or OH. Square brackets hold non-standard residues; d marks the D form. Primed or numbered codes have the meaning given here. Side chains are listed from the residue outwards. Ends that are not written are not given here. * marks the point of attachment. C18 diacid = O=C(O)CCCCCCCCCCCCCCCCC(=O)*; C16 diacid = O=C(O)CCCCCCCCCCCCCCC(=O)*; γGlu = O=C(O)[C@H](CCC(=O)[*:2])N[*:1]; Iva = CC[C@](C)(N)C(=O)O; PEG3′ = not defined here; Abu = CC[C@H](N)C(=O)O; Aib = CC(C)(N)C(=O)O
experimental_endpoint: GIP EC50(pM)

{"columns": ["binder", "scale_unit", "observed_value"],
 "data": [
  ["Y[Aib]EGTFISDYSIALDR[Aib]HQ[Aib]NFVNW[Iva]LAQRPSSK([PEG3′-γGlu-C16 diacid])APPPS (ends and bridges not checked) [Compound No. 518]", "pM", 0.61],
  ["Y[Aib]EGTFISDYSIALDR[Aib]HQ[Aib]NFVNW[Iva]LAQRK([Abu-γGlu-C18 diacid])SSGAPPPS (ends and bridges not checked) [Compound No. 537]", "pM", 1.32]
]}

Where these numbers come from: patent US20220135638A1
